Collected from the literature: IC50 of various compounds toward Hepatocyte growth factor receptor (Homo sapiens, UniProt P08581).

Find the recorded IC50 belonging to `O=C(Nc1ccc(Oc2ccnc(NC(=O)C3CC3)c2)c(F)c1)c1ncn(-c2ccccc2)c1C(F)(F)F` and report it.
> 5000 nM

Follow-up entry: `Cc1ccnc(-n2ncc(C(=O)Nc3ccc(Oc4ncnc(N)c4Cl)c(F)c3)c2C(F)(F)F)c1`
> 5000 nM

Likewise for `Nc1nccc(Oc2ccc(NC(=O)c3cnn(-c4ncccc4F)c3C(F)(F)F)cc2F)c1Cl` ?
500 to 5000 nM

Same thing, different compound: `Cc1ccc(C(=O)Nc2ccc(Nc3ccc(O)c(-c4ccnc(N)n4)c3)c(F)c2)c(=O)n1-c1ccc(F)cc1`
49 nM

* * *

The following compounds were reported with IC50 values on Hepatocyte growth factor receptor (Homo sapiens) in different studies.

What value of IC50 has been recorded for this entry: `CCOc1ccn(-c2ccc(F)cc2)c(=O)c1C(=O)Nc1ccc(-c2ccc(OC)c(-c3cnc(N)nc3)c2)c(F)c1`
> 10 µM

// query: `Nc1nccc(Oc2ccc(NC(=O)c3cnn(-c4ccccn4)c3C(F)(F)F)cc2F)c1Cl`
0.5 to 5 µM

Now give it for `CCc1c(C(=O)Nc2ccc(Oc3ccnc4[nH]c(=O)n(C(C)C)c34)c(F)c2)cnn1-c1ccccc1` too.
0.5 to 5 µM

Do the same for CN1CCCC(n2ncc(C(=O)Nc3ccc(Oc4ncnc(N)c4Cl)c(F)c3)c2C(F)(F)F)C1 (stereo not shown) please
> 5 µM

Next entry: `Nc1nccc(Oc2c(F)cc(NC(=O)c3cnn(-c4ncccc4Cl)c3C(F)(F)F)cc2F)c1C1CCOCC1`
0.05 to 0.5 µM

What about `Nc1ncnc(Oc2ccc(NC(=O)c3ncn(-c4ccccc4)c3C(F)(F)F)cc2F)c1Cl` ?
> 5 µM

And `CCc1c(C(=O)Nc2ccc(Oc3ccnc(N)c3Cl)c(F)c2)cnn1-c1ncccc1Cl` ?
0.5 to 5 µM

* * *

pIC50: −log10 of the molar value.
The molecules below each have a reported pIC50 tested on UniProt:P08581; the values come from various publications.

# lookup: pIC50 of `CCc1c(C(=O)Nc2ccc(Oc3ccnc(N)c3Cl)c(F)c2)cnn1-c1ncccc1F`
< 5.30

Would you kindly repeat that for `Cc1ccc(C(=O)Nc2ccc(Oc3ccnc(N)c3Cl)c(F)c2)c(=O)n1-c1ccc(F)cc1` ?
8.70

Next entry: `Nc1nccc(Oc2c(F)cc(NC(=O)c3cnn(-c4ccccc4)c3C(F)(F)F)cc2F)c1Cl`
< 5.30

For `COc1ccn(-c2ccc(F)cc2)c(=O)c1C(=O)Nc1ccc(-c2ccc(O)c(-c3ccnc(N)n3)c2)c(F)c1` then?
6.23

# repeat for `Nc1nccc(-c2cc(Oc3ccc(NC(=O)c4cc(Br)cn(-c5ccc(F)cc5)c4=O)cc3F)ccc2O)n1`
7.34

// query: `N#Cc1c(Oc2c(F)cc(NC(=O)c3cnn(-c4cccnn4)c3C(F)(F)F)cc2F)ccnc1N`
5.30 to 6.30

# iterate: `Cc1c(C(=O)Nc2ccc(Oc3ccnc(N)c3Cl)c(F)c2)cnn1-c1cncnc1`
< 5.30

Same question for `Cn1ncc(C(=O)Nc2ccc(Oc3ccnc(N)c3Cl)c(F)c2)c1C(F)F` please.
< 5.30

* * *

The compounds below each have a reported IC50 tested on Hepatocyte growth factor receptor (Homo sapiens); the values come from various publications.

Quick one: IC50 for `CC(=O)c1cc(Oc2ccc(NC(=O)c3ccc(C)n(-c4ccc(F)cc4)c3=O)cc2F)ccc1O` ?
0.954 µM

Try the compound `CCc1c(C(=O)Nc2cc(F)c(Oc3ccnc(N)c3Cl)c(F)c2)cnn1-c1ncccc1F`
> 5 µM

What do you get for `CCOC(=O)Nc1c(Oc2ccc(NC(=O)c3cnn(-c4ccccc4)c3C(F)(F)F)cc2F)ccnc1N` ?
> 5 µM

For `Nc1nccc(Oc2c(F)cc(NC(=O)c3cnn(-c4ncccn4)c3C(F)(F)F)cc2F)c1CN1CCOCC1` then?
> 5 µM

One more compound: `Cc1ccc(C(=O)Nc2ccc(NC(=O)c3cc(-c4cnn(C)c4)cnc3N)c(F)c2)c(=O)n1-c1ccc(F)cc1`
1.56 µM

Query `Nc1nccc(Oc2ccc(NC(=O)c3onc(-c4ccccc4)c3C(F)(F)F)cc2F)c1Cl` next
> 5 µM

Now this one: `CCc1c(C(=O)Nc2ccc(Oc3ccnc(N)c3Cl)c(F)c2)cnn1-c1ccncc1`
> 5 µM

Consider next the compound `CC(C)n1c(=O)[nH]c2nccc(Oc3ccc(NC(=O)c4ncc(-c5ccccc5)s4)cc3F)c21` in the same way.
> 5 µM

* * *

A compilation of pIC50 values for Hepatocyte growth factor receptor (Homo sapiens) from the published literature.
pIC50: −log10 of the molar value.

I would be grateful if you could share the reported pIC50 for `Cc1c(C(=O)Nc2ccc(Oc3ccnc4[nH]c(=O)n(C(C)C)c34)c(F)c2)cnn1-c1ccccc1` .
5.30 to 6.30

Thanks! And `Nc1nccc(Oc2ccc(NC(=O)c3cnn(-c4ccccc4)c3Cl)cc2F)c1Cl` ?
5.30 to 6.30

Follow-up item: `CC(C)n1c(=O)[nH]c2nccc(Oc3ccc(NC(=O)c4cnn(C5CCOCC5)c4C(F)(F)F)cc3F)c21`
6.30 to 7.30

Same thing, different molecule: `Nc1nccc(Oc2c(F)cc(NC(=O)c3cnn(-c4cccnn4)c3C(F)(F)F)cc2F)c1C1CC1`
5.30 to 6.30

Next molecule: `Nc1ncnc(Oc2ccc(NC(=O)c3ccn(-c4ccccc4)n3)cc2F)c1Cl`
< 5.30

# repeat for `C#Cc1c(Oc2c(F)cc(NC(=O)c3cnn(-c4ncccc4F)c3C(F)(F)F)cc2F)ccnc1N`
5.30 to 6.30

Then this molecule: `N#Cc1c(Oc2c(F)cc(NC(=O)c3cnn(-c4ncccn4)c3C(F)(F)F)cc2F)ccnc1N`
5.30 to 6.30

Also `Nc1nccc(Oc2ccc(NC(=O)c3cnn(-c4ncccc4F)c3C(F)(F)F)c(F)c2)c1Cl` ?
5.30 to 6.30

Note, next up: `Cc1nn(-c2ccccc2)c(C)c1C(=O)Nc1ccc(Oc2ncnc(N)c2Cl)c(F)c1`
< 5.30

For `CCn1c(=O)[nH]c2nccc(Oc3ccc(NC(=O)c4cnn(-c5ccccc5)c4C(F)(F)F)cc3F)c21` then?
< 5.30

Subsequent entry: `Nc1ncnc(Oc2ccc(NC(=O)c3cnn(-c4cc(Cl)ccn4)c3C(F)(F)F)cc2F)c1Cl`
< 5.30

Then `Nc1nccc(Oc2c(F)cc(NC(=O)c3cnn(-c4ccccn4)c3C(F)(F)F)cc2F)c1I` ?
< 5.30

Item: `O=C(Nc1ccc(Oc2ncnc(NC3CC3)c2Cl)c(F)c1)c1cnn(-c2ccccc2)c1C(F)(F)F`
< 5.30

What about this molecule? `CCOCC(=O)N1CCC(n2ncc(C(=O)Nc3cc(F)c(Oc4ccnc(N)c4Cl)c(F)c3)c2C(F)(F)F)CC1`
5.30 to 6.30

Moving on to the next molecule: `C#Cc1c(Oc2c(F)cc(NC(=O)c3cnn(-c4ncccn4)c3C(F)(F)F)cc2F)ccnc1N`
5.30 to 6.30

Can you check `COCCCN1CCC(n2ncc(C(=O)Nc3cc(F)c(Oc4ccnc(N)c4Cl)c(F)c3)c2C(F)(F)F)CC1` next?
< 5.30

Try `CCOc1ccn(-c2ccc(F)cc2)c(=O)c1C(=O)Nc1ccc(-c2ccc3[nH]ncc3c2)c(F)c1` next.
5.18

Then this molecule: `Cc1c(C(=O)Nc2ccc(Oc3ccnc4[nH]c(=O)n(C(C)C)c34)c(F)c2)cnn1-c1cncnc1`
5.30 to 6.30

And what about the molecule `C#Cc1c(Oc2c(F)cc(NC(=O)c3cnn(-c4ccccc4)c3C(F)(F)F)cc2F)ccnc1N` ?
5.30 to 6.30

Note, next up: `Nc1nccc(Oc2c(F)cc(NC(=O)c3cnn(-c4ccccc4)c3C(F)(F)F)cc2F)c1C1CCOCC1`
5.30 to 6.30

Try `CC(C)n1c(=O)[nH]c2nccc(Oc3ccc(NC(=O)c4cnn(-c5cccc(C(F)(F)F)n5)c4C(F)(F)F)cc3F)c21` next.
< 5.30

What do we get for `Nc1ncnc(Oc2ccc(NC(=O)c3cnn(-c4ccccc4)c3-c3ccccc3)cc2F)c1Cl` ?
5.30 to 6.30

Cool, now `COc1cccnc1-n1ncc(C(=O)Nc2ccc(Oc3ccnc4[nH]c(=O)n(C(C)C)c34)c(F)c2)c1C(F)(F)F`
5.30 to 6.30

Same question, `CC(C)n1c(=O)[nH]c2nccc(Oc3ccc(NC(=O)c4ncn(-c5ccccc5)c4C(F)(F)F)cc3F)c21` this time
< 5.30

Please answer likewise for `Cc1cccnc1-n1ncc(C(=O)Nc2ccc(Oc3ccnc4[nH]c(=O)n(C(C)C)c34)c(F)c2)c1C(F)(F)F`
5.30 to 6.30

Queued: `Nc1ncnc(Oc2ccc(NC(=O)c3cnn(-c4cccnn4)c3C(F)(F)F)cc2F)c1Cl`
< 5.30

Field entry: `Nc1nccc(Oc2ccc(NC(=O)c3cnn(-c4cncnc4)c3C(F)(F)F)cc2F)c1Cl`
< 5.30

Then this molecule: `O=C(Nc1ccc(Oc2ccnc3[nH]c(=O)[nH]c23)c(F)c1)c1ncn(-c2ccccc2)c1C(F)(F)F`
< 5.30

How about this molecule: `CCOc1ccn(-c2ccc(F)cc2)c(=O)c1C(=O)Nc1ccc(Oc2ccc(O)c(-c3cc[nH]n3)c2)c(F)c1`
6.80

Next: `Nc1nccc(Oc2c(F)cc(NC(=O)c3cnn(-c4ncccn4)c3C(F)(F)F)cc2F)c1C1CC1`
5.30 to 6.30
